IC50 listing for selected molecules.
Tested on: cholesterol biosynthesis in L-cells of mice (929)
Test: Assay Method B: inhibition of 14C-cholesterol biosynthesis from 14C-acetic acid in L-cells of mice (929) (method of Kandutsch et al)
Assay type: cell-based
Settings: Mus musculus, mole concentration for 50% inhibition of cholesterol biosynthesis, read-out: ID50 (M) Assay Method B
Source text: The inhibitory activity of these compounds to cholesterol biosynthesis was further evaluated according to the method described in A. A. Kandutsch et al, Journal of Biological Chemistry, 248, 8408 (1973) by measuring the amount of ^14 C-cholesterol biosynthesized from ^14 C-acetic acid using L-cells of mice (929), and the activity was expressed by the mole concentration [I50 (M)] for 50% inhibition of cholesterol biosynthesis (Assay Method B).
Give the number; M is assumed, so skip it.

Observe how each entry below is paired with its result.
Summary: CC1(O)CC(=O)OC(CCc2ccccc2OCc2ccccc2)C1 (stereo not shown) , cholesterol biosynthesis in L-cells of mice (929), IC50 = 5e-05

Summary: COc1cc(CCC2CC(C)(O)CC(=O)O2)ccc1OC(C)=O (stereo not shown) , cholesterol biosynthesis in L-cells of mice (929), IC50 = 8.3e-05

Summary: Cc1cc(OCc2ccccc2)cc(C)c1CCC1CC(C)(O)CC(=O)O1 (stereo not shown) , cholesterol biosynthesis in L-cells of mice (929), IC50 = 5.4e-06

Summary: CC1(O)CC(=O)OC(CCc2ccc(OCc3ccccc3)cc2)C1 (stereo not shown) , cholesterol biosynthesis in L-cells of mice (929), IC50 = 6e-06

Others:
Summary: CC1(O)CC(=O)OC(c2ccc(-c3ccccc3)cc2)C1 (stereo not shown) , cholesterol biosynthesis in L-cells of mice (929), IC50 = 0.00016

Summary: CC1(O)CC(=O)OC(CCc2ccccc2OCc2ccccc2)C1Br (stereo not shown) , cholesterol biosynthesis in L-cells of mice (929), IC50 = 8.8e-05

###

target: 3-hydroxy-3-methylglutaryl coenzyme A reductase (Rattus norvegicus, UniProt P51639); construct: from tissue; test: Assay Method A: inhibitory activity to cholesterol biosynthesis in vitro, 50% inhibition of the enzyme activity (method of Knauss et al); format: biochemical; settings: Assay Method A; in vitro; mole concentration for 50% inhibition of the enzyme activity; read-out: ID50 (M) Assay Method A
Sequence (P51639 whole entry): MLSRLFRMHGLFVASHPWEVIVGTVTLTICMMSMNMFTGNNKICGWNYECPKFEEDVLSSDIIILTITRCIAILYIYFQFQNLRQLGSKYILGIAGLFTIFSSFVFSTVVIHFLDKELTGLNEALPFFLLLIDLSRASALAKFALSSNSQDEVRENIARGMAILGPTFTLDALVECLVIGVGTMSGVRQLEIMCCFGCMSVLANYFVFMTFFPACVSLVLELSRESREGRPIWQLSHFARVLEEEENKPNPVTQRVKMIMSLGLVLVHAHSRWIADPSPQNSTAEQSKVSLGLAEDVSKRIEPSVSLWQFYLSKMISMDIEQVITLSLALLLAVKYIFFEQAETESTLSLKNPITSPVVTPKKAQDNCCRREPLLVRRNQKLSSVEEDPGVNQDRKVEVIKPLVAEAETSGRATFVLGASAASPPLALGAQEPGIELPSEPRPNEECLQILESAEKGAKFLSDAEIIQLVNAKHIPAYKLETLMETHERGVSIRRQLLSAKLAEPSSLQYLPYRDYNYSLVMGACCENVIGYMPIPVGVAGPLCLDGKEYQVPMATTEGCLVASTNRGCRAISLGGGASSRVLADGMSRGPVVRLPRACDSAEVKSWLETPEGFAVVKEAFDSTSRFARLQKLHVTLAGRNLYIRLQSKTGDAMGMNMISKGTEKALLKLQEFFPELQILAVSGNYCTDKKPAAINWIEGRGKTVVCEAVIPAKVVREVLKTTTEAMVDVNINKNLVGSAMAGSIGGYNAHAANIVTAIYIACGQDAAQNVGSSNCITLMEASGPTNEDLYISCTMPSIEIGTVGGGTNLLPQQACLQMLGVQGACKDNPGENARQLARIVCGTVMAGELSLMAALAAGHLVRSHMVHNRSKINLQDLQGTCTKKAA
IC50 listing for selected compounds.
Give the number; M is assumed, so skip it.

Observe how each entry below is paired with its result.
The compound listed as COc1cc(CCC2CC(C)(O)CC(=O)O2)ccc1OC(C)=O (centres unmarked) [W] shows IC50 equal to 4.5e-05

The compound listed as CC1(O)CC(=O)OC(CCc2ccc(OCc3ccccc3)cc2)C1 (centres unmarked) [H] shows IC50 equal to 4.2e-06

The compound listed as Cc1cc(OC(=O)c2ccccc2)cc(C)c1CCC1CC(C)(O)CC(=O)O1 (centres unmarked) [X] shows IC50 equal to 3.9e-06

Others:
The compound listed as CC1(O)CC(=O)OC(CCCc2ccc(OCc3ccccc3)cc2)C1 (centres unmarked) [Y] shows IC50 equal to 4e-06

The compound listed as CC(=O)OC1(C)CC(=O)OC(CCc2ccc(OCc3ccccc3)cc2)C1 (centres unmarked) [G] shows IC50 equal to 4.5e-05

The compound listed as CC1(O)CC(=O)OC(C=Cc2cccc(OCc3ccccc3)c2)C1 (centres unmarked) [S] shows IC50 equal to 7.1e-05

The compound listed as CC1(O)CC(=O)OC(c2ccc(-c3ccccc3)cc2)C1 (centres unmarked) [B] shows IC50 equal to 0.0001

The compound listed as CC1(O)CC(=O)OC(CCc2ccccc2)C1Br (centres unmarked) [Compound D] shows IC50 equal to 0.0001

The compound listed as CC1(O)CC(=O)OC(CCc2ccccc2)C1 (centres unmarked) [C] shows IC50 equal to 0.00036

The compound listed as COc1cc(CCC2CC(C)(O)CC(=O)O2)ccc1OCc1ccccc1 (centres unmarked) [T] shows IC50 equal to 2.1e-05

The compound listed as CC1(O)CC(=O)OC(CCc2ccccc2OCc2ccccc2)C1Br (centres unmarked) [K] shows IC50 equal to 4.7e-05

###

biological target: 3-hydroxy-3-methylglutaryl coenzyme A reductase (Rattus norvegicus); construct: from tissue; experiment: Assay Method A: inhibitory activity to cholesterol biosynthesis in vitro, 50% inhibition of the enzyme activity (method of Knauss et al); assay type: biochemical; conditions: Assay Method A; in vitro; mole concentration for 50% inhibition of the enzyme activity; read-out: ID50 (M) Assay Method A
PARAMETER_MEASURED: log10 of IC50 (log10 of the value in M)
All values: log10 IC50 [M].

Observe how each entry below is paired with its result.
The molecule listed as CC1(O)CC(=O)OC(c2ccc(OCc3ccccc3)cc2)C1 (stereo not drawn) shows log10 of IC50 equal to -4.21

The molecule listed as CC1(O)CC(=O)OC(CCc2ccc(OCc3ccccc3)cc2)C1Br (stereo not drawn) shows log10 of IC50 equal to -5.25

The molecule listed as COc1ccc(CCC2CC(C)(O)CC(=O)O2)cc1 (stereo not drawn) shows log10 of IC50 equal to -4.20

The molecule listed as Cc1cc(OCc2ccccc2)cc(C)c1CCC1CC(C)(O)CC(=O)O1 (stereo not drawn) shows log10 of IC50 equal to -5.42

The molecule listed as CC1C(C=Cc2ccccc2)OC(=O)CC1(C)O (stereo not drawn) shows log10 of IC50 equal to -4.19

Now let's try a different one.
The molecule listed as CC1(O)CC(=O)OC(C=Cc2ccc(OCc3ccccc3)cc2)C1 (stereo not drawn) shows log10 of IC50 equal to -5.07

###

system: cholesterol biosynthesis in L-cells of mice (929); assay: Assay Method B: inhibition of 14C-cholesterol biosynthesis from 14C-acetic acid in L-cells of mice (929) (method of Kandutsch et al); format: cell-based; details: Mus musculus, mole concentration for 50% inhibition of cholesterol biosynthesis, read-out: ID50 (M) Assay Method B
IC50 listing for selected compounds.
Give the number; M is assumed, so skip it.

Observe how each entry below is paired with its result.
The compound listed as CC1(O)CC(=O)OC(CCc2ccccc2)C1 (centres unmarked) shows IC50 equal to 4.2e-05

The compound listed as CCOC(=O)C(C)(C)Oc1ccc(Cl)cc1 [Clofibrate, reference compound] shows IC50 equal to 8e-05

The compound listed as CC1(O)CC(=O)OC(CCc2ccc(OCc3ccc(F)cc3)cc2)C1 (centres unmarked) shows IC50 equal to 5e-05

The compound listed as COc1cc(CCC2CC(C)(O)CC(=O)O2)ccc1OCc1ccccc1 (centres unmarked) shows IC50 equal to 1.1e-05

The compound listed as CC1(O)CC(=O)OC(CCc2ccc(OCc3ccc(Cl)cc3)cc2)C1 (centres unmarked) shows IC50 equal to 1.9e-05

Others:
The compound listed as CC1(O)CC(=O)OC(CCc2ccc(Cl)cc2)C1 (centres unmarked) shows IC50 equal to 3e-05

The compound listed as CC1(O)CC(=O)OC(c2ccc(OCc3ccccc3)cc2)C1 (centres unmarked) shows IC50 equal to 0.00013

The compound listed as CC1(O)CC(=O)OC(C=Cc2ccc(OCc3ccccc3)cc2)C1 (centres unmarked) shows IC50 equal to 1.3e-05

The compound listed as CC1(O)CC(=O)OC(CCCc2ccc(OCc3ccccc3)cc2)C1 (centres unmarked) shows IC50 equal to 7e-06

The compound listed as CC1(O)CC(=O)OC(CCc2ccc(OCc3ccccc3)cc2)C1Br (centres unmarked) shows IC50 equal to 3e-05

The compound listed as CC(=O)OC1(C)CC(=O)OC(CCc2ccc(OCc3ccccc3)cc2)C1 (centres unmarked) shows IC50 equal to 3.1e-05

###

IC50 listing for selected molecules.
molecular target: 3-hydroxy-3-methylglutaryl coenzyme A reductase (Rattus norvegicus); construct: from tissue; assay: Assay Method A: inhibitory activity to cholesterol biosynthesis in vitro, 50% inhibition of the enzyme activity (method of Knauss et al); type: biochemical; settings: Assay Method A; in vitro; mole concentration for 50% inhibition of the enzyme activity; read-out: ID50 (M) Assay Method A
Answer format reminder: number followed by unit.

Observe how each entry below is paired with its result.
The molecule listed as CC1(O)CC(=O)OC(CCc2ccc(Cl)cc2)C1 (stereo not drawn) [N] shows IC50 equal to 4.5e-05 M

The molecule listed as CC1(O)CC(=O)OC(CCc2ccc(Cl)cc2)C1Br (stereo not drawn) [O] shows IC50 equal to 6.3e-05 M

The molecule listed as CC1(O)CC(=O)OC(CCc2ccc(O)cc2)C1 (stereo not drawn) [F] shows IC50 equal to 6.6e-05 M

The molecule listed as CC1C(CCc2ccccc2)OC(=O)CC1(C)O (stereo not drawn) [E] shows IC50 equal to 6.7e-05 M

The molecule listed as CC1(O)CC(=O)OC(CCCc2ccc(OCc3ccccc3)cc2)C1Br (stereo not drawn) [Z] shows IC50 equal to 6.7e-06 M

Now let's try a different one.
The molecule listed as CC1(O)CC(=O)OC(CCc2ccccc2OCc2ccccc2)C1 (stereo not drawn) [I] shows IC50 equal to 3.3e-05 M
